conditions: cell viability/%
Where a SMILES comes first, the peptide text is derived from it. [ ]: non-standard residue; d: D form. The star is where a group is joined. NHCH2CH2OH = OCCN*; For = O=C*
Listing: viability of selected compounds

- Compound: "CNC(=O)C[C@@H](NC(=O)[C@@H](NC(=O)[C@H](NC(=O)[C@H](C)NC(=O)[C@@H](CC(C)C)NC(=O)[C@H](C)NC(=O)CNC(=O)[C@@H](NC=O)C(C)C)C(C)C)C(C)C)C(=O)N[C@@H](Cc1c[nH]c2ccccc12)C(=O)N[C@H](CC(C)C)C(=O)N[C@@H](Cc1c[nH]c2ccccc12)C(=O)N[C@H](CC(C)C)C(=O)N[C@@H](Cc1c[nH]c2ccccc12)C(=O)N[C@@H](C(=O)N[C@@H](Cc1c[nH]c2ccccc12)C(=O)NCCO)C(C)C [compound 7204] (For-VGA[dL]A[dV]V[dD](NHMe)W[dL]W[dL]W[dV]W-NHCH2CH2OH)"
  viability, %: 100
- Compound: "CC(C)C[C@@H](NC(=O)[C@H](C)NC(=O)[C@H](NC(=O)[C@H](C)NC(=O)CNC(=O)[C@@H](NC=O)C(C)C)C(C)C)C(=O)N[C@H](C(=O)N[C@@H](C(=O)N[C@@H](Cc1c[nH]c2ccccc12)C(=O)N[C@H](CC(C)C)C(=O)N[C@@H](Cc1c[nH]c2ccccc12)C(=O)N[C@@H](C(=O)N[C@@H](Cc1c[nH]c2ccccc12)C(=O)N[C@H](CC(C)C)C(=O)N[C@@H](Cc1c[nH]c2ccccc12)C(=O)NCCO)[C@H](C)O)[C@H](C)O)C(C)C [compound 4195] (For-VGA[dV]A[dL]V[dT]W[dL]W[dT]W[dL]W-NHCH2CH2OH)"
  viability, %: 90.6

---

Listing: viability of selected molecules
Conditions: cell viability/%
Procedure: Each type of assay must be simplified and miniaturized to assess the activities of the library peptides in a 96-well format for the high-throughput screening. […] Mammalian cytotoxicity assay of bead-derived peptides . P388 cells were obtained from Institute of […] for 92 h, the numbers of viable cells were determined by […] at 37 °C. The absorbance of each well at 415 nm was measured using a Benchmark microplate reader (Bio-Rad). The cytotoxicities were evaluated as cell viability (%). […]
Where a SMILES comes first, the peptide text is derived from it. [ ]: non-standard residue; d: D form. The star is where a group is joined. NHCH2CH2OH = OCCN*; For = O=C*

- Molecule: "CC(C)C[C@@H](NC(=O)[C@H](C)NC(=O)[C@H](NC(=O)[C@H](C)NC(=O)CNC(=O)[C@@H](NC=O)C(C)C)C(C)C)C(=O)N[C@H](C(=O)N[C@@H](C(=O)N[C@@H](Cc1c[nH]c2ccccc12)C(=O)N[C@@H](C(=O)N[C@@H](Cc1c[nH]c2ccccc12)C(=O)N[C@@H](C(=O)N[C@@H](Cc1c[nH]c2ccccc12)C(=O)N[C@H](CC(C)C)C(=O)N[C@@H](Cc1c[nH]c2ccccc12)C(=O)NCCO)C(C)C)C(C)C)C(C)C)C(C)C [compound 437] (For-VGA[dV]A[dL]V[dV]W[dV]W[dV]W[dL]W-NHCH2CH2OH)"
  Unit: "%"
  viability: 100
- Molecule: "CC(C)C[C@@H](NC(=O)[C@H](C)NC(=O)CNC(=O)[C@@H](NC=O)C(C)C)C(=O)N[C@@H](C)C(=O)N[C@@H](C(=O)N[C@H](C(=O)N[C@@H](C(=O)N[C@@H](Cc1c[nH]c2ccccc12)C(=O)N[C@H](CC(C)C)C(=O)N[C@@H](Cc1c[nH]c2ccccc12)C(=O)N[C@@H](C(=O)N[C@@H](Cc1c[nH]c2ccccc12)C(=O)N[C@H](CC(C)C)C(=O)N[C@@H](Cc1c[nH]c2ccccc12)C(=O)NCCO)C(C)C)C(C)C)C(C)C)C(C)C [compound 3861] (For-VGA[dL]A[dV]V[dV]W[dL]W[dV]W[dL]W-NHCH2CH2OH)"
  Unit: "%"
  viability: 0.1
